Assay: supercomplex reporter luminescence per Hoechst cell count – Hoechst nuclei count (AID 1645838);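 note: control cybrid cells; higher means more mitochondrial supercomplex formation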
Conditions: Cells, luminescence/Hoechst cell count ratio, library stock concentration (final well concentration not given) 10 mM, stronger effect = higher value
The whole screen tested about 2,000 compounds, of which about 100 (5%) were called active. The list comes from a sample in which actives are over-represented; it also holds close analogues and randomly drawn compounds.
Threshold check on z-score: at or above -0.1 gives rule met, strictly below gives rule not met.

**Query** Can CCN(CC)Cc1ccc(C(=O)N(CCc2ccccc2OC)C2CCNC2)cc1 (stereo not drawn) be said to have z-score at or above -0.1?
**Result** rule met

**Query** Can `CN1CCc2c(c3ccccc3n2Cc2ccc(C(=O)NO)cc2)C1` be said to have z-score at or above -0.1?
**Result** rule met

**Query** Can CCCNC(=O)C1OC1C(=O)N[C@@H](C(=O)N1CCCC1C(=O)O)C(C)CC (stereo partly drawn) be said to have z-score at or above -0.1?
**Result** rule not met

**Query** Can `CC(C)OC(=O)N1CCC(Oc2ncnc3c2cnn3-c2ccc(S(C)(=O)=O)cc2F)CC1` be said to have z-score at or above -0.1?
**Result** rule not met

**Query** Can `Cc1ccc(C)c(-n2sc3cc(F)ccc3c2=O)c1` be said to have z-score at or above -0.1?
**Result** rule met

**Query** Can `O=C(NC(=O)c1c(F)cccc1Cl)NC1c2ccccc2-c2ccccc21` be said to have z-score at or above -0.1?
**Result** rule not met

**Query** Can `COc1cc(C(C)C)c2c(c1)S(=O)(=O)N(COc1cc(=O)n3cccc(OCCN4CCCCC4)c3n1)C2=O` be said to have z-score at or above -0.1?
**Result** rule not met

**Query** Can NC(=O)c1cnc(NC2CCCCC2N)nc1Nc1cccc(-n2nccn2)c1 (stereo not drawn) be said to have z-score at or above -0.1?
**Result** rule met

**Query** Can CCCCCC(O)CCC1C(O)C[C@H]2Cc3c(cccc3OCC(=O)O)C[C@@H]12 (stereo partly drawn) be said to have z-score at or above -0.1?
**Result** rule not met

**Query** Can `COc1cc2c(Oc3ccc4[nH]c(C)cc4c3F)ncnc2cc1OCCCN1CCCC1` be said to have z-score at or above -0.1?
**Result** rule met

**Query** Can CC(N)c1ccc(C(=O)Nc2ccnc3[nH]ccc23)cc1 (stereo not drawn) be said to have z-score at or above -0.1?
**Result** rule met

**Query** Can `Oc1ccc(C=NN(Cc2ccccc2)Cc2ccccc2)cc1` be said to have z-score at or above -0.1?
**Result** rule met

**Query** Can COc1ccc(C2(O)CCC(N3CCC(NC(=O)CNC(=O)c4cccc(C(F)(F)F)c4)C3)CC2)cn1 (stereo not drawn) be said to have z-score at or above -0.1?
**Result** rule not met

**Query** Can CC1=C(C(=O)Nc2ccccc2C)C(c2cccc([N+](=O)[O-])c2)C2=C(CCCC2=O)N1 (stereo not drawn) be said to have z-score at or above -0.1?
**Result** rule met

**Query** Can `O=c1c(-c2ccc(O)c(O)c2)coc2cc(O)ccc12` be said to have z-score at or above -0.1?
**Result** rule met

**Query** Can CSCCC(NC(=O)C(CC(C)C)NC(=O)CNC(=O)C(NC(=O)C(Cc1ccccc1)NC(=O)C(CO)NC(=O)C(CC(=O)O)NC(=O)[C@H](NC(=O)C(CCCCN)NC(=O)C(N)Cc1cnc[nH]1)C(C)O)C(C)C)C(N)=O (stereo partly drawn) be said to have z-score at or above -0.1?
**Result** rule not met

**Query** Can CC(CSC(=O)c1ccccc1)C(=O)N1CC(Sc2ccccc2)CC1C(=O)O (stereo not drawn) be said to have z-score at or above -0.1?
**Result** rule not met

**Query** Can CCOc1ccc(-n2c(C(C)N(Cc3cccnc3)C(=O)Cc3ccc(F)c(C(F)(F)F)c3)nc3ncccc3c2=O)cc1 (stereo not drawn) be said to have z-score at or above -0.1?
**Result** rule met

**Query** Can `O=C(c1cc(Cc2n[nH]c(=O)c3ccccc23)ccc1F)N1CCN(C(=O)C2CC2)CC1` be said to have z-score at or above -0.1?
**Result** rule met

**Query** Can `COc1cc(C(=O)N2CCC(N3CCN(C)CC3)CC2)ccc1Nc1ncc2c(n1)N(C)c1ccccc1C(=O)N2C` be said to have z-score at or above -0.1?
**Result** rule met

**Query** Can `N=C(N)c1ccc2cc(OC(=O)c3ccc(N=C(N)N)cc3)ccc2c1` be said to have z-score at or above -0.1?
**Result** rule met

**Query** Can CCC(NC(=O)c1c(C)c(-c2ccccc2)nc2ccccc12)c1ccccc1 (stereo not drawn) be said to have z-score at or above -0.1?
**Result** rule not met

**Query** Can `CC(C=CC1=C(C)CCCC1(C)C)=CC=CC(C)=CC(=O)O` be said to have z-score at or above -0.1?
**Result** rule met

**Query** Can `Cc1c(Cc2ccc3ccccc3n2)c2cc(F)ccc2n1CC(=O)O` be said to have z-score at or above -0.1?
**Result** rule not met

**Query** Can NC(CSCCB(O)O)C(=O)O (stereo not drawn) be said to have z-score at or above -0.1?
**Result** rule not met

**Query** Can CCCNC1CCc2nc(N)sc2C1 (stereo not drawn) be said to have z-score at or above -0.1?
**Result** rule not met

**Query** Can CC(OC1OCCN(Cc2n[nH]c(=O)[nH]2)C1c1ccc(F)cc1)c1cc(C(F)(F)F)cc(C(F)(F)F)c1 (stereo not drawn) be said to have z-score at or above -0.1?
**Result** rule met

**Query** Can `COc1ccccc1Oc1ccc(N(Cc2cccnc2)S(=O)(=O)CC(F)(F)F)cc1` be said to have z-score at or above -0.1?
**Result** rule met

**Query** Can CCCCCCNC(=O)Nc1ccc(S(=O)(=O)Nc2ccc(CCNCC(O)COc3ccc(O)cc3)cc2)cc1 (stereo not drawn) be said to have z-score at or above -0.1?
**Result** rule met

**Query** Can `O=C(O)c1ccc(-c2c[nH]c3ncc(-c4ccccc4)cc23)cc1C1CCCC1` be said to have z-score at or above -0.1?
**Result** rule met

**Query** Can `COc1cc(C=C(C#N)C(=O)Nc2nnc(C(F)(F)F)s2)ccc1OCc1ccc(C(F)(F)F)cc1C(F)(F)F` be said to have z-score at or above -0.1?
**Result** rule not met

**Query** Can `Cc1ccc(-c2ccc3c(c2)C=C(C(=O)Nc2ccc(C[N+](C)(C)C4CCOCC4)cc2)CCC3)cc1` be said to have z-score at or above -0.1?
**Result** rule met

**Query** Can `COc1cc(C(=O)NS(=O)(=O)c2ccccc2C)ccc1Cc1cn(C)c2ccc(NC(=O)OC3CCCC3)cc12` be said to have z-score at or above -0.1?
**Result** rule met

**Query** Can `O=C(Nc1nnc(-c2ccco2)o1)c1cc(-c2ccccc2)nc2ccccc12` be said to have z-score at or above -0.1?
**Result** rule met

**Query** Can COCC(c1ccc(C(F)(F)F)cc1)N1CCN(C2(C)CCN(C(=O)c3c(C)ncnc3C)CC2)CC1C (stereo not drawn) be said to have z-score at or above -0.1?
**Result** rule met

**Query** Can CC(C)(O)c1ccccc1CCC(SCC1(CC(=O)O)CC1)c1cccc(C=Cc2ccc3ccc(Cl)cc3n2)c1 (stereo not drawn) be said to have z-score at or above -0.1?
**Result** rule not met

**Query** Can `CN1CCN(c2ccc(Nc3cc(-c4cccc(-n5ccc6cc(C7CC7)cc(F)c6c5=O)c4CO)cn(C)c3=O)nc2)CC1` be said to have z-score at or above -0.1?
**Result** rule met

**Query** Can COC(=O)C(NC(=O)c1cc(-c2ccccc2)nc2ccccc12)c1ccccc1 (stereo not drawn) be said to have z-score at or above -0.1?
**Result** rule met

All figures here come from PubChem BioAssay AID1645838.
